System Under Test: Orexin/Hypocretin receptor type 1 (Homo sapiens) (UniProt O43613)
Sequence (O43613 whole entry, looked up): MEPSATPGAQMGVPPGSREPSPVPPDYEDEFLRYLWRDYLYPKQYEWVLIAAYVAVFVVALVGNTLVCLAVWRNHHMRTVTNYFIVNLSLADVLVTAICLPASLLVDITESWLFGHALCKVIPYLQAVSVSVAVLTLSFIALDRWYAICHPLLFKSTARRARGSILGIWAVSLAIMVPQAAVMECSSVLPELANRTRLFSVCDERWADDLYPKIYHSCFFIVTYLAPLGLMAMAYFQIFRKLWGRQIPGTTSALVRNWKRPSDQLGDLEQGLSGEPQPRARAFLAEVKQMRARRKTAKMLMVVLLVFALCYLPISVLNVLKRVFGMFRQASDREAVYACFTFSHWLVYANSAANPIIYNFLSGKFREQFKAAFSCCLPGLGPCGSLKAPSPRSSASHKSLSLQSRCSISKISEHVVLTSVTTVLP
Assay Procedure: blockers of orexin-A calcium signaling via HCRTR1 – fluorescence, CHO/OX1R cells, Fluo-8 calcium, primary screen (AID 434989);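 also: 0% = orexin A challenge wells and 100% = SB-334867-A antagonist wells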
Recorded Conditions: Fluo-8 calcium fluorescence, at 5 µM
About 1,400 (0.42%) of roughly 330,000 compounds were called active.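 The calls were made as follows: active = inhibition above its plate's threshold, mean inhibition of all tested compounds on the plate plus 3 SD (cut at about 37% in these data); inactive = the rest.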 The list comes from a sample in which actives are over-represented; it also holds close analogues and randomly drawn compounds.
Tick one outcome: True for active, False for inactive

Reference set (3 entries):
{"Compound": "CCC(C(=O)NCc1ccc(OC)cc1)n1nc(C)n2c(cc3occc32)c1=O (stereo not drawn)", "Group": "False"}
{"Compound": "COc1cc(OC)cc(C(=O)N[C@H](C(=O)OCC(=O)NC(C)c2ccccc2)C(C)C)c1 (stereo partly drawn)", "Group": "True"}
{"Compound": "Cc1ccc(S(=O)(=O)Nc2ccc3c(c2)C(=O)N([C@H](C)CO)C[C@@H](C)[C@@H](CN(C)C(=O)Nc2cccc4ccccc24)O3)cc1", "Group": "False"}

Enquiry: Hey, what did the test say about Cc1ccccc1NC(=S)NC(=O)Cc1ccc(Cl)cc1 ?
Return: False

Enquiry: Hey, what did the test say about COc1ccc(N2C(=O)c3cccc4cccc(c34)C2=O)nn1 ?
Return: False

Enquiry: Hey, what did the test say about COc1cccc(CC(=O)OCC(=O)NCc2ccc3c(c2)OCO3)c1 ?
Return: False

Enquiry: Hey, what did the test say about Cc1nn(C)cc1N1C(=O)c2cccc3c(N)ccc(c23)C1=O ?
Return: True

Enquiry: Hey, what did the test say about O=C(COC(=O)c1ccc(F)c(S(=O)(=O)N2CCOCC2)c1)NCc1ccc2c(c1)OCO2 ?
Return: False

Enquiry: Hey, what did the test say about COc1cc(OC)cc(C(=O)NC(C(=O)N2CCC2)C(C)C)c1 (stereo not drawn) ?
Return: False

Enquiry: Hey, what did the test say about CC(=O)Nc1ccc(/C=N/NC(=O)c2cccs2)cc1 ?
Return: False

Enquiry: Hey, what did the test say about O=C(COC(=O)COc1ccccc1F)Nc1cccc(S(=O)(=O)N2CCCCC2)c1 ?
Return: False

Enquiry: Hey, what did the test say about O=C(COC(=O)CN1C(=O)C2CCCCC2C1=O)Nc1ccc(F)c(F)c1F (stereo not drawn) ?
Return: False

Enquiry: Hey, what did the test say about CCOC(=O)N1CCN(C(=O)C2CCN(c3ncnc4c3sc3cccc(F)c34)CC2)CC1 ?
Return: True

----------
System Under Test: Orexin/Hypocretin receptor type 1 (Homo sapiens) (UniProt O43613)
Assay Procedure: blockers of orexin-A calcium signaling via HCRTR1 – fluorescence, CHO/OX1R cells, Fluo-8 calcium, primary screen (AID 434989);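 also: 0% = orexin A challenge wells and 100% = SB-334867-A antagonist wells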
Recorded Conditions: Fluo-8 calcium fluorescence, at 5 µM, stronger effect = higher value
In all, about 330,000 compounds went through this assay and about 1,400 (0.42%) were called active. Only a selection was taken, and actives are over-represented in it overall.
Property Label: inhibition (%)
// return numeric value only (unit: %, not printed)

Enquiry: Look up inhibition: COc1cccc(C(=O)NC(=O)Nc2nc(C)cc(C(F)(F)F)n2)c1
Return: 43.9

Enquiry: Look up inhibition: C=CC[C@@H](CC(=O)NCCO)C(=O)N[C@H](C)COC(=O)[C@@H](CC=C)CC(=O)OC(C)(C)C
Return: 1.19

Enquiry: Look up inhibition: COc1ccc(/C=C/C(=O)OCC(=O)NC2CCCCCC2)cc1OC
Return: -27.2

Enquiry: Look up inhibition: C=CCC[C@H](Cc1ccc(F)cc1)C(=O)OC[C@H](C)NC(=O)[C@H](CC=C)CC(=O)N(CCO)Cc1ccccc1
Return: 6.31

----------
System Under Test: Orexin/Hypocretin receptor type 1 (Homo sapiens)
Assay Procedure: blockers of orexin-A calcium signaling via HCRTR1 – fluorescence, CHO/OX1R cells, Fluo-8 calcium, primary screen (AID 434989);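 also: 0% = orexin A challenge wells and 100% = SB-334867-A antagonist wells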
Recorded Conditions: Fluo-8 calcium fluorescence, at 5 µM, stronger effect = higher value
Out of some 330,000 compounds screened, about 1,400 (0.42%) were called active. The list comes from a sample in which actives are over-represented; it also holds close analogues and randomly drawn compounds.
Property Label: inhibition (%)
// return numeric value only (unit: %, not printed)

Please review the following examples before continuing.
{"Compound": "Nc1nc(COC(=O)CCC(=O)c2ccc(Cl)cc2)nc(Nc2ccccc2)n1", "Unit Of Measure": "%", "inhibition": 67.8}
{"Compound": "CCN(CC(=O)NC(C)C)C(=O)c1cc(S(=O)(=O)N2CCCCC2)ccc1N1CCCCC1", "Unit Of Measure": "%", "inhibition": -37.7}
{"Compound": "c1ccc2c(c1)OCC(CNc1ncnc3nc[nH]c13)O2 (stereo not drawn)", "Unit Of Measure": "%", "inhibition": 90.5}
{"Compound": "CC(=O)N1c2ccc(S(=O)(=O)N3CCCC(C(=O)Nc4cccc(Cl)c4)C3)cc2CC1C (stereo not drawn)", "Unit Of Measure": "%", "inhibition": 0.09}

Enquiry: Look up inhibition: Cc1cccc(NS(=O)(=O)c2ccc(C)c(C(=O)NCc3cccnc3)c2)c1
Return: -9.11

Enquiry: Look up inhibition: O=C(Nc1ccc(C(=O)N2CCCCC2)cc1)c1cccc([N+](=O)[O-])c1
Return: 1.86

----------
System Under Test: Orexin/Hypocretin receptor type 1 (Homo sapiens) (UniProt O43613)
Assay Procedure: blockers of orexin-A calcium signaling via HCRTR1 – fluorescence, CHO/OX1R cells, Fluo-8 calcium, primary screen (AID 434989);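 also: 0% = orexin A challenge wells and 100% = SB-334867-A antagonist wells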
Recorded Conditions: Fluo-8 calcium fluorescence, at 5 µM, stronger effect = higher value
About 1,400 (0.42%) of roughly 330,000 compounds were called active. The sample holds actives, similar compounds and a random draw of the others, so the mix is not that of the screen.
Property Label: inhibition (%)
// return numeric value only (unit: %, not printed)

{"Molecule": "CCN(CC)C(=O)[C@H]1CC(CC(=O)NCc2ccco2)C(=O)N2CCc3c([nH]c4ccccc34)[C@]12C (some centres not stated)", "inhibition (%)": -11.1}
{"Molecule": "CCN(CC)c1ccc(/C=N/NC(=O)c2cnccn2)c(O)c1", "inhibition (%)": 48.7}
{"Molecule": "COc1ccc(CNC(=O)COC(=O)C(CCSC)N2C(=O)c3ccccc3C2=O)cc1 (configuration not stated)", "inhibition (%)": -29.7}
{"Molecule": "O=C(Nc1ccc(C2CC2(Cl)Cl)cc1)c1cccc([N+](=O)[O-])c1 (configuration not stated)", "inhibition (%)": 45.8}
{"Molecule": "Cc1cccc(NC(=O)NC(=S)NC(=O)c2ccccc2)c1", "inhibition (%)": -26.4}
{"Molecule": "COc1ccc(CNC(=O)CNC(=O)c2sc3ccccc3c2Cl)cc1OC", "inhibition (%)": -23.5}
{"Molecule": "NC(N)=N/N=C/c1ccc(OCc2ccc(Cl)cc2Cl)cc1", "inhibition (%)": 60}
{"Molecule": "CCOC(=O)Cn1c(=O)oc2cc(S(=O)(=O)N(C)Cc3ccco3)ccc21", "inhibition (%)": -12}

Enquiry: Look up inhibition: CCCN(CC(=O)Nc1ccccc1OC)C(=O)CCC(=O)c1ccc(F)cc1
Return: 44.7

Enquiry: Look up inhibition: CCN(CC(=O)Nc1ccccc1OC)C(=O)CC1CC2CCC1C2 (configuration not stated)
Return: -19.5

----------
Below is a list of entries, each paired with its recorded inhibition value.
System Under Test: Orexin/Hypocretin receptor type 1 (Homo sapiens) (UniProt O43613)
Assay Procedure: blockers of orexin-A calcium signaling via HCRTR1 – fluorescence, CHO/OX1R cells, Fluo-8 calcium, primary screen (AID 434989);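 also: 0% = orexin A challenge wells and 100% = SB-334867-A antagonist wells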
Recorded Conditions: Fluo-8 calcium fluorescence, at 5 µM, stronger effect = higher value
About 1,400 (0.42%) of roughly 330,000 compounds were called active. What follows is part of a selection rich in actives, with near analogues and random picks from the rest.
// return numeric value only (unit: %, not printed)

Please review the following examples before continuing.
{"Compound": "CCOC(=O)COn1c(=O)c(-c2ccc(OCC)cc2)[n+]([O-])c2ccccc21", "System Under Test": "Orexin/Hypocretin receptor type 1 (Homo sapiens) (UniProt O43613)", "Unit Of Measure": "%", "inhibition": -31.8}
{"Compound": "COc1ccc2sc(-c3ccc(N(C)C)cc3)c(-c3ccc4cc[nH]c4c3)c2c1", "System Under Test": "Orexin/Hypocretin receptor type 1 (Homo sapiens) (UniProt O43613)", "Unit Of Measure": "%", "inhibition": 1.84}
{"Compound": "CCn1c(COc2cccc(OC)c2)nnc1SCC(=O)N1CCOCC1", "System Under Test": "Orexin/Hypocretin receptor type 1 (Homo sapiens) (UniProt O43613)", "Unit Of Measure": "%", "inhibition": -6.58}
{"Compound": "O=C1[C@@H](c2ccccc2)[C@@H](c2ccccc2)N1c1cccnc1", "System Under Test": "Orexin/Hypocretin receptor type 1 (Homo sapiens) (UniProt O43613)", "Unit Of Measure": "%", "inhibition": 42.8}
{"Compound": "COCCNC(=S)N/N=C/c1c(C)[nH]c2ccccc12", "System Under Test": "Orexin/Hypocretin receptor type 1 (Homo sapiens) (UniProt O43613)", "Unit Of Measure": "%", "inhibition": -0.83}
{"Compound": "CC1O[C@H](OC2C(COC3OC(CO)C(O)[C@H](O)C3O)OC(OC3CC[C@]4(C)C(CC[C@@]5(C)[C@@H]4C=C[C@]46OC[C@@]7(CCC(C)(C)C[C@H]74)C(O)C[C@@]56C)C3(C)C)C(O)C2O)C(O)C(O)C1O (some centres not stated)", "System Under Test": "Orexin/Hypocretin receptor type 1 (Homo sapiens) (UniProt O43613)", "Unit Of Measure": "%", "inhibition": -2.45}

# context switch: different compound, same inhibition
Enquiry: Look up inhibition: CC(C)CC1NC(=O)c2cc(Cl)ccc2-n2c1nc1ccccc1c2=O (configuration not stated)
Return: -24.4
